- Read-out: E-selectin (Homo sapiens) (UniProt P16581)
- Sequence (P16581 whole entry, looked up): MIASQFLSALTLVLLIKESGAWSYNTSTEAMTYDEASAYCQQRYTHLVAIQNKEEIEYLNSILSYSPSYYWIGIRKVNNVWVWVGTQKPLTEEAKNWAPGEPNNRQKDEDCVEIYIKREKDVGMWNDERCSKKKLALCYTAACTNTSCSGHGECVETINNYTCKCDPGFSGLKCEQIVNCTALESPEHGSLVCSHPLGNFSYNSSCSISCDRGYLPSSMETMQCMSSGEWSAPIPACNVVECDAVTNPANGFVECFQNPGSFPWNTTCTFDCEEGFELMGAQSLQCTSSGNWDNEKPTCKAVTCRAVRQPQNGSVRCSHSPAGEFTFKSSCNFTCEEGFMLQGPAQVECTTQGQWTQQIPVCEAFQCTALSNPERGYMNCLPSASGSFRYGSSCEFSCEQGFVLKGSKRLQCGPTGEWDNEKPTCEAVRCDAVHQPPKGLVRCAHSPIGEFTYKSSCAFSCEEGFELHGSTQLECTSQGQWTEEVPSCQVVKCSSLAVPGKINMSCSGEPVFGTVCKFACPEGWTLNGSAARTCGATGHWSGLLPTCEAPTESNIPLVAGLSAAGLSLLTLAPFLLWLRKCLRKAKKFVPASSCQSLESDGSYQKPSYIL
- experimental protocol: BSK_SAg_Eselectin: BioMAP Diversity Plus: SAg Assay for Eselectin Biomarker Activity (AID 2283091)
- experimental parameters: primary human HUVEC with PBMC; actives raise or lower the signal
Calls of active or inactive are those of the source. Rule for the calls: active = hit-call score of the fitted dose curve at least 0.9, where 1 is the maximum; inactive = score below 0.9.
Outcome codes: active, inactive

compound | category label
COCC(C)OCC(C)O (stereo not given) | inactive
CCCCCCCCCCCCc1ccccc1S(=O)(=O)O | inactive
Nc1cccc2c(N)cccc12 | inactive
CCCCCCCCCCCCCCCS(=O)(=O)Oc1ccccc1 | inactive
CCCCOCCO | inactive
CN(C)C=O | inactive
O=c1c(-c2ccc(O)cc2)coc2cc(O)ccc12 | inactive
CCCCCCCCCCCCN1CCCC1=O | active
CCOC(=O)CC(O)(CC(=O)OCC)C(=O)OCC | inactive
COC(=O)CCCCC(=O)OC | inactive
NC(=O)N(O)[C@@H]1C=C[C@H](Oc2cccc(Oc3ccc(F)cc3)c2)C1 | inactive
CCCCCCCCC(=O)O | inactive
c1ccc2c(c1)ccc1ccccc12 | inactive
CCCCCCC(=O)O | inactive
CC(O)CO (stereo not given) | inactive
CCCCCCCC(=O)O | inactive
O=[N+]([O-])c1ccc(O)cc1 | inactive
Oc1cc2ccccc2c2ccccc12 | active
ClC1=C(Cl)C(Cl)(Cl)C(Cl)=C1Cl | active
NCC(F)(F)C(F)(F)C(F)(F)C(F)(F)C(F)(F)C(F)(F)C(F)(F)F | inactive

###

- Read-out: Phosphatase and tensin (PTEN), PTEN (gene 5728)
- experimental protocol: LTEA_HepaRG_PTEN: Life Technologies and Expression Analysis (LTEA) Assay for Phosphatase and tensin (PTEN) using HepaRG (AID 2283523)
- experimental parameters: mRNA level, 48 h; actives raise or lower the signal
Calls of active or inactive are those of the source. The calls were made as follows: active = hit-call score of the fitted dose curve at least 0.9, where 1 is the maximum; inactive = score below 0.9.
Outcome codes: yes for active, no for inactive

compound | category label
CC(C)(C)c1ccc(O)c(C(C)(C)C)c1 | no
CC(C)CCCCCCOC(=O)CCCCC(=O)OCCCCCCC(C)C | no
COCC(C)O (configuration not stated) | no
COC(=O)CCCCC(=O)OC | no
CC[C@H](c1ccc(O)cc1)[C@@H](CC)c1ccc(O)cc1 | no
C#C[C@]1(O)CC[C@H]2[C@@H]3CCC4=CC(=O)CC[C@@H]4[C@H]3CC[C@@]21C | no
CC(C)(C)CC(C)(C)c1ccc(O)c(-n2nc3ccccc3n2)c1 | no
CCOC(=O)CC(O)(CC(=O)OCC)C(=O)OCC | no
CC(=O)NC1(c2cccc(F)c2)CCN(CC[C@@]2(c3ccc(Cl)c(Cl)c3)CN(c3ccccc3)C(=O)CO2)CC1 | yes
C[C@@H]1C[C@H]2[C@@H]3CCC4=CC(=O)C=C[C@]4(C)[C@@]3(F)[C@@H](O)C[C@]2(C)[C@@]1(O)C(=O)COP(=O)(O)O | no
CCCCCCCC(=O)O | no
CN(C)C=O | no
Cc1cc(C)c(O)c(C)c1 | no
OC1CCC(C2CCCCC2)CC1 (configuration not stated) | no
COc1ccc([N+](=O)[O-])cc1N | no
Oc1cccc(O)c1 | no
CCCCCCCCCCCCCCCS(=O)(=O)Oc1ccccc1 | no
Cc1cc(CCN2CCN(c3nsc4ccccc34)CC2)cc2c1NC(=O)CC2(C)C | no
c1ccc2c(c1)Cc1ccccc1-2 | no
CCCCCCCCC(=O)O | no
CCCCC(CC)COC(=O)CCCCC(=O)OCC(CC)CCCC (configuration not stated) | no
O=c1c(-c2ccc(O)cc2)coc2cc(O)ccc12 | no
CCCOc1sc(C(=O)N2CCC(c3cc(CN)ccc3F)CC2)c(C)c1Br | no
COCC(C)OCC(C)O (configuration not stated) | no
CCCOC(=O)c1ccc(O)cc1 | no
ClC1=C(Cl)C(Cl)(Cl)C(Cl)=C1Cl | no
Oc1cc2ccccc2c2ccccc12 | no

###

- Read-out: Keratin 19 (KRT19), KRT19 (gene 3880)
- experimental protocol: LTEA_HepaRG_KRT19: Life Technologies and Expression Analysis (LTEA) Assay for Keratin 19 (KRT19) using HepaRG (AID 2283512)
- experimental parameters: mRNA level, 48 h; actives raise or lower the signal
Calls of active or inactive are those of the source. The calls were made as follows: active = hit-call score of the fitted dose curve at least 0.9, where 1 is the maximum; inactive = score below 0.9.
Outcome codes: Yes (active), No (inactive)

compound | category label
COC(=O)CCCCC(=O)OC | No
CCc1ccc(CCOc2ccc(CC3SC(=O)NC3=O)cc2)nc1 (stereo unspecified) | Yes
CC(=O)NC1(c2cccc(F)c2)CCN(CC[C@@]2(c3ccc(Cl)c(Cl)c3)CN(c3ccccc3)C(=O)CO2)CC1 | No
CCC(=C(c1ccc(O)cc1)c1ccc(OCCN(C)C)cc1)c1ccccc1 | No
OCCC(F)(F)C(F)(F)C(F)(F)C(F)(F)C(F)(F)C(F)(F)C(F)(F)C(F)(F)F | No
CCCCC(CC)COC(=O)CCCCC(=O)OCC(CC)CCCC (stereo unspecified) | No
C[C@@H]1C[C@H]2[C@@H]3CCC4=CC(=O)C=C[C@]4(C)[C@@]3(F)[C@@H](O)C[C@]2(C)[C@@]1(O)C(=O)COP(=O)(O)O | No
O=c1c(-c2ccc(O)cc2)coc2cc(O)ccc12 | No
O=[N+]([O-])c1ccc(O)cc1 | No
CCc1nn(C2CCCCC2)c2cc(C3(C#N)CCC(C(=O)O)CC3)ccc12 (stereo unspecified) | Yes
CN1CCN(c2ccccc2/C=C2\SCCN(c3ccc(Cl)c(Cl)c3)C2=O)CC1 | Yes
OC1CCC(C2CCCCC2)CC1 (stereo unspecified) | No
OCCC(F)(F)C(F)(F)C(F)(F)C(F)(F)C(F)(F)C(F)(F)F | No
C#C[C@]1(O)CC[C@H]2[C@@H]3CCC4=CC(=O)CC[C@@H]4[C@H]3CC[C@@]21C | No
CC#C[C@]1(O)CC[C@H]2[C@@H]3CCC4=CC(=O)CCC4=C3[C@@H](c3ccc(N(C)C)cc3)C[C@@]21C | No
C=C(C)C(=O)OCCC(F)(F)C(F)(F)C(F)(F)C(F)(F)C(F)(F)C(F)(F)F | No
c1ccc2c(c1)ccc1ccccc12 | No
Cc1cc(CCN2CCN(c3nsc4ccccc34)CC2)cc2c1NC(=O)CC2(C)C | Yes
N#C[C@@H]1CC(F)(F)CN1C(=O)CNC1CC2CCC(C1)N2c1ncccn1 (stereo partly specified) | No
Cc1oc(-c2ccccc2)nc1CCOc1ccc(C[C@H](Nc2ccccc2C(=O)c2ccccc2)C(=O)O)cc1 | Yes
COCC(C)O (stereo unspecified) | No
CCCCCCCCCCCCc1ccccc1S(=O)(=O)O | No
CC[C@H](c1ccc(O)cc1)[C@@H](CC)c1ccc(O)cc1 | Yes
CCCCCCCCC(=O)O | No
Cc1cc(C)c(O)c(C)c1 | No
OC1CCCCC1 | No
CCCCCCC(=O)O | No
CCCCC(CC)COC(=O)CCCCC(=O)OCc1ccccc1 (stereo unspecified) | No
c1ccc2c(c1)Cc1ccccc1-2 | No
CC[C@H](C)[C@@H](C(=O)O)n1sc2ccccc2c1=O | No
CCC(C)(C)C1CCC(O)CC1 (stereo unspecified) | No
CN1CCC[C@H]1c1cccnc1 | No
CC(C)(C)c1cccc(C(C)(C)C)c1O | No
COCC(C)OCC(C)O (stereo unspecified) | No
CC(C)CCCCCCOC(=O)CCCCC(=O)OCCCCCCC(C)C | No
CCCCCCCC(=O)O | No

###

- system under test: rat Neurokinin-3 Receptor (NK3), Tacr3 (gene 24808)
- experimental protocol: NVS_GPCR_rNK3: NovaScreen (NVS) G Protein-Coupled Receptor Assay for rat Neurokinin-3 Receptor (NK3) (AID 2283310)
Inconclusive results are not listed. Activity calls are given as the source filed them. The calls were made as follows: active = hit-call score of the fitted dose curve at least 0.9, where 1 is the maximum; inconclusive = response in the unintended direction; inactive = score below 0.9.
Outcome codes: active, inactive

compound structure | system under test | category label
CC[C@H](c1ccc(O)cc1)[C@@H](CC)c1ccc(O)cc1 | rat Neurokinin-3 Receptor (NK3), Tacr3 (gene 24808) | inactive
CC(=O)NC1(c2cccc(F)c2)CCN(CC[C@@]2(c3ccc(Cl)c(Cl)c3)CN(c3ccccc3)C(=O)CO2)CC1 | rat Neurokinin-3 Receptor (NK3), Tacr3 (gene 24808) | active
CC#C[C@]1(O)CC[C@H]2[C@@H]3CCC4=CC(=O)CCC4=C3[C@@H](c3ccc(N(C)C)cc3)C[C@@]21C | rat Neurokinin-3 Receptor (NK3), Tacr3 (gene 24808) | inactive
Cc1oc(-c2ccccc2)nc1CCOc1ccc(C[C@H](Nc2ccccc2C(=O)c2ccccc2)C(=O)O)cc1 | rat Neurokinin-3 Receptor (NK3), Tacr3 (gene 24808) | inactive

###

- experimental protocol: Tanguay_ZF_120hpf_SNOU_legacy: (Legacy) Oregon State University Tanguay Lab 120 Hour Post-fertilization zebrafish Assay for Snout Malformation (AID 2283637)
Results filed as inconclusive are left out. Active and inactive are the calls of the source. Rule for the calls: active = hit-call score of the fitted dose curve at least 0.9, where 1 is the maximum; inconclusive = response in the unintended direction; inactive = score below 0.9.
Outcome codes: 1 for active, -1 for inactive

molecule | category label
CC1=C(/C=C/C(C)=C/C=C/C(C)=C/C(=O)O)C(C)(C)CCC1 | 1
CC(C)(C)c1cc(C(C)(C)C)c(O)c(C(C)(C)C)c1 | -1
CCOC(=O)CC(O)(CC(=O)OCC)C(=O)OCC | -1
CC(O)CO (stereo unspecified) | -1
CCCCCCCC(=O)O | -1
ClC1=C(Cl)C(Cl)(Cl)C(Cl)=C1Cl | -1
O=C(O)Cc1cc(I)c(Oc2cc(I)c(O)c(I)c2)c(I)c1 | 1
C#C[C@]1(O)CC[C@H]2[C@@H]3CCC4=CC(=O)CC[C@@H]4[C@H]3CC[C@@]21C | -1
O=C(O)c1ccccc1C(c1ccc(O)cc1)c1ccc(O)cc1 | -1
CCC(C)(C)C1CCC(O)CC1 (stereo unspecified) | -1
CCc1ccc(CCOc2ccc(CC3SC(=O)NC3=O)cc2)nc1 (stereo unspecified) | -1
OC1CCC(C2CCCCC2)CC1 (stereo unspecified) | -1
C=C(C)C(=O)OCCC(F)(F)C(F)(F)C(F)(F)C(F)(F)C(F)(F)C(F)(F)F | -1
CN1CCC[C@H]1c1cccnc1 | -1
CCc1nn(C2CCCCC2)c2cc(C3(C#N)CCC(C(=O)O)CC3)ccc12 (stereo unspecified) | 1
CC(=O)NC1(c2cccc(F)c2)CCN(CC[C@@]2(c3ccc(Cl)c(Cl)c3)CN(c3ccccc3)C(=O)CO2)CC1 | -1
CCCCCCCCCCCCN1CCCC1=O | -1
CCCCOCCO | -1
Cc1cc(C)c(O)c(C)c1 | -1
O=c1c(-c2ccc(O)cc2)coc2cc(O)ccc12 | -1
CCC(=C(c1ccc(O)cc1)c1ccc(OCCN(C)C)cc1)c1ccccc1 | -1
COCC(C)O (stereo unspecified) | -1
N#C[C@@H]1CC(F)(F)CN1C(=O)CNC1CC2CCC(C1)N2c1ncccn1 (stereo partly specified) | -1
COCC(C)OCC(C)O (stereo unspecified) | -1
NC(=O)N1C(=O)C(C(=O)c2cc(Cl)cs2)c2cc(F)c(Cl)cc21 (stereo unspecified) | -1
C[C@@H]1C[C@H]2[C@@H]3CCC4=CC(=O)C=C[C@]4(C)[C@@]3(F)[C@@H](O)C[C@]2(C)[C@@]1(O)C(=O)COP(=O)(O)O | -1
CC[C@H](C)[C@@H](C(=O)O)n1sc2ccccc2c1=O | -1
Cc1cc(CCN2CCN(c3nsc4ccccc34)CC2)cc2c1NC(=O)CC2(C)C | 1
CCCCCCC(=O)O | -1
CCCCCCCCCCCCc1ccccc1S(=O)(=O)O | -1
COC(=O)CCCCC(=O)OC | -1
Oc1cccc(O)c1 | -1
CCCCCCCCC(=O)O | -1
O=C(OCCOCCOC(=O)c1ccccc1)c1ccccc1 | -1
CCCOC(=O)c1ccc(O)cc1 | 1
OC1CCCCC1 | -1
